Test Target: TNFα (Homo sapiens, UniProt P01375)
Sequence (P01375 77-233 limits assumed, species assumed): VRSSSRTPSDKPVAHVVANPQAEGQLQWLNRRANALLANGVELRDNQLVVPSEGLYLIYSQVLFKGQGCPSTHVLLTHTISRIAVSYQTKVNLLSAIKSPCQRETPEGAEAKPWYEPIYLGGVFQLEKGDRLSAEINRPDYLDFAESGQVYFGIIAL
Assay Notes: TNFα-induced apoptosis in WEHI-13VAR cell line
Type: cell-based
Measurement Parameters: 4 × 10^−5 M
Observed Property: inhibition at 40 µM (%)

Example compounds with recorded inhibition at 40 µM:
>  <Compound>
NCCCCCNc1nc(NCCc2ccc(N)cc2)nc(Nc2ccc(F)cc2)n1

>  <Test Target>
TNFα (Homo sapiens, UniProt P01375)

>  <Measured Number>
47.2

$$$$
>  <Compound>
CN(C)S(=O)(=O)c1ccc(CCNc2nc(NCCCCCN)nc(Nc3ccc(F)cc3)n2)cc1

>  <Test Target>
TNFα (Homo sapiens, UniProt P01375)

>  <Measured Number>
53.9

$$$$
>  <Compound>
NCCCCCNc1nc(NCCc2ccc(S(N)(=O)=O)cc2)nc(Nc2ccc(F)cc2)n1

>  <Test Target>
TNFα (Homo sapiens, UniProt P01375)

>  <Measured Number>
118

$$$$
>  <Compound>
NCCCCCNc1nc(NCCc2ccc(S(N)(=O)=O)cc2)nc(Nc2cccc(F)c2)n1

>  <Test Target>
TNFα (Homo sapiens, UniProt P01375)

>  <Measured Number>
78.9

$$$$
>  <Compound>
NCCCCCNc1nc(Nc2ccc(S(N)(=O)=O)cc2)nc(Nc2cccc(F)c2)n1

>  <Test Target>
TNFα (Homo sapiens, UniProt P01375)

>  <Measured Number>
55.6

$$$$

a = NCCCCNc1nc(NCCc2ccc(S(N)(=O)=O)cc2)nc(Nc2cccc(F)c2)n1
b = NCCCCCNc1nc(NCC(O)c2ccc(O)cc2)nc(Nc2ccc(F)cc2)n1 (stereo not drawn)
Of the two listed items, which has the higher inhibition at 40 µM? First: a Second: b Your answer should be the label of the entry you select. a
(a: 65.5%, b: 35%)

Data provenance: patent US8258295B2
